Data credit: the supplement of paper PMC9112550

Assignment: determine reported shrunken log2 fold change for the given sequences.
- Test system: Escherichia coli TOP10;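 note: peptides expressed intracellularly from a pBAD plasmid library in pooled LB shake-flask culture, induced with 0.3% L-arabinose, DNA abundance read by NGS, three biological replicates, DESeq2 with apeglm shrinkage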
- Protocol Notes: shrunken log2 fold change of peptide-encoding DNA abundance (4.5 h post-induction vs induction); higher = less antimicrobial activity (less host growth inhibition)
- Measurement Parameters: time post-induction: 4.5 h; library: site-saturation at positions 5, 18, 19, 20
Number, no unit, nothing else.

Which shrunken log2 fold change reading was recorded for the sequence `RRIRIRPPRLPRPRPRPNSNPRP` ?
-0.983

Which shrunken log2 fold change reading was recorded for the sequence `RRIRLRPPRLPRPRPRPEECPRP` ?
0.00698

Which shrunken log2 fold change reading was recorded for the sequence `RRIRLRPPRLPRPRPRPRQAPRP` ?
-0.00965

Which shrunken log2 fold change reading was recorded for the sequence `RRIRWRPPRLPRPRPRPMWRPRP` ?
0.328

Which shrunken log2 fold change reading was recorded for the sequence `RRIRPRPPRLPRPRPRPPLKPRP` ?
0.441

Which shrunken log2 fold change reading was recorded for the sequence `RRIRSRPPRLPRPRPRPQFEPRP` ?
0.189

Which shrunken log2 fold change reading was recorded for the sequence `RRIRHRPPRLPRPRPRPRAYPRP` ?
-0.411

Which shrunken log2 fold change reading was recorded for the sequence `RRIRWRPPRLPRPRPRPNKSPRP` ?
0.0866

Which shrunken log2 fold change reading was recorded for the sequence `RRIRYRPPRLPRPRPRPNMPPRP` ?
-0.304

Which shrunken log2 fold change reading was recorded for the sequence `RRIRVRPPRLPRPRPRPYGAPRP` ?
0.162

Which shrunken log2 fold change reading was recorded for the sequence `RRIRMRPPRLPRPRPRPSMPPRP` ?
-0.201

Which shrunken log2 fold change reading was recorded for the sequence `RRIRLRPPRLPRPRPRPMSKPRP` ?
0.0198

Which shrunken log2 fold change reading was recorded for the sequence `RRIRHRPPRLPRPRPRPQLQPRP` ?
0.0457

Which shrunken log2 fold change reading was recorded for the sequence `RRIRDRPPRLPRPRPRPFICPRP` ?
-0.0606

Which shrunken log2 fold change reading was recorded for the sequence `RRIRYRPPRLPRPRPRPQRHPRP` ?
-0.48
